System: DU-145 prostate
Assay: NCI-60 one-dose screen, 48 h
Conditions: 10 µM unless noted
About 83,000 compounds went through this panel and 20% of them were active in at least one assay; those are over-represented in the sample as a whole. Activity calls are given as the source filed them. The calls were made as follows: active = growth percent below 10; inactive = the rest.
// one of YES = active, NO = inactive, no free text

Asked: Assay outcome for Cc1ccc(S(=O)(=O)OCC(=O)Nc2ccc(C(=O)O)c(O)c2)cc1 : what was it?
Given back: NO

Asked: Assay outcome for COc1ccc(/C=C/C(=O)c2cccc(B(O)O)c2)cc1O : what was it?
Given back: YES

Asked: Assay outcome for COc1ncc(-c2ccc3ncnc(Nc4cccc(Cl)c4)c3c2)cc1NS(=O)(=O)CCN1CCOCC1 : what was it?
Given back: NO

Asked: Assay outcome for CCOC(=O)/C=C\C(=O)NC(N)=O : what was it?
Given back: NO

Asked: Assay outcome for COC1=CC(c2ccc[nH]2)=N/C1=C\c1[nH]c(C)c(CCCn2cc(CCCCCCCCC[C@@H]3Cc4cc(O)ccc4C4CC[C@]5(C)[C@@H](O)CC[C@H]5C43)nn2)c1C (some centres undefined) : what was it?
Given back: NO

Asked: Assay outcome for CCN(C(=O)c1cc2ccccc2[nH]1)[C@H]1CCC[C@@H](NCc2ccc(OC)cc2)C1 : what was it?
Given back: NO

Asked: Assay outcome for CCOC(=O)[C@H](CSSc1ncnc2cc[nH]c12)NC(=O)[C@@H](C)c1ccc2cc(OC)ccc2c1 : what was it?
Given back: NO

Asked: Assay outcome for COc1cc(Cn2c(SCCC(=O)Nc3ccc(F)cc3)nc3ccccc3c2=O)cc(OC)c1OC : what was it?
Given back: NO

Asked: Assay outcome for Clc1ccc2c(c1)NC1(CCSc3ccccc31)n1nccc1-2 (centres undefined) : what was it?
Given back: NO

Asked: Assay outcome for COc1ccc(/C(=N/O)c2cc(F)c(F)c(OC)c2F)cc1O : what was it?
Given back: NO

Asked: Assay outcome for COc1ccc(-c2nc3sccn3c2-c2ccnc(NCCCNS(=O)(=O)c3ccc4ccccc4c3)n2)cc1 : what was it?
Given back: NO

Asked: Assay outcome for COc1cc(C(=O)OCCCCCCCCCCC[P+](c2ccccc2)(c2ccccc2)c2ccccc2)ccc1O : what was it?
Given back: NO

Asked: Assay outcome for COc1cccc(-c2nc3sccn3c2-c2ccnc(NCCNS(=O)(=O)c3ccccc3)n2)c1 : what was it?
Given back: NO

Asked: Assay outcome for Cn1cc(C=O)c2ccccc21 : what was it?
Given back: NO

Asked: Assay outcome for COc1ccc(NC(=S)/N=c2\oc3c(OC)cccc3cc2-c2cc3ccccc3[nH]2)cc1 : what was it?
Given back: NO

Asked: Assay outcome for Cc1ccc(-c2csc3nc(C)c(CCCl)c(=O)n23)cc1 : what was it?
Given back: NO

Asked: Assay outcome for COc1cc(NS(C)(=O)=O)ccc1Nc1c2ccc([N+](=O)[O-])cc2nc2c(C)cccc12 : what was it?
Given back: YES

Asked: Assay outcome for CC1=C(C#N)C(C)(C)C(C#N)=C(C)N1 : what was it?
Given back: NO

Asked: Assay outcome for CC1=CNNc2c3ncnc-3ncn21 : what was it?
Given back: NO

====

Test system: DU-145 prostate
Assay: NCI-60 one-dose screen, 48 h (100 = growth as untreated, 0 = no growth, -100 = all killed)
Conditions: 10 µM unless noted
This is part of a sample that, as a whole, favours compounds with a hit. Of some 83,000 tested, about 20% had one in any assay.
Task for the reader: assign each of the following molecules its reported growth.
# value in %; strip the unit string

Asked: // Input: COc1ccc(-c2nc(-c3nc4ccc(F)cc4[nH]3)cc3c2[nH]c2ccccc23)cc1 . Output its growth only.
Given back: 25.6

Asked: // Input: COc1ccc(C(=O)/C=C/c2cccc([N+](=O)[O-])c2)c(OC)c1 . Output its growth only.
Given back: 25.3

Asked: // Input: NC(C(=O)O)C(O)c1ccc(OCc2ccccc2)c(OCc2ccccc2)c1 (stereo not drawn) . Output its growth only.
Given back: 107

====

Test system: CCRF-CEM leukemia
Test: NCI-60 one-dose screen, 48 h (100 = growth as untreated, 0 = no growth, -100 = all killed)
Settings: 10 µM unless noted
The panel holds about 83,000 compounds, 20% with a hit somewhere; the sample as a whole holds those more often.
Task for the reader: assign each of the following compounds its reported growth.
# value in %; strip the unit string

Asked: // Input: CC(=O)Nc1nc(C(=O)N2N=C(C)/C(=C/c3cccs3)C2=O)cs1 . Output its growth only.
Given back: 92.4

Asked: // Input: O=C(O)c1ccc(-n2cc(CNc3ccc(C(F)(F)F)cc3)c(-c3ccccc3)n2)cc1 . Output its growth only.
Given back: 91.4

Asked: // Input: Nc1ccccc1C#C/C=C\C#Cc1cccc(O)c1 . Output its growth only.
Given back: 32

Asked: // Input: O=S=Nc1ccc([N+](=O)[O-])cc1 . Output its growth only.
Given back: 101

Asked: // Input: Nc1cc2c(cc1N)-c1cc(N)c(N)cc1C2 . Output its growth only.
Given back: 88.2

Asked: // Input: CCN(C(=O)c1cc2ccccc2[nH]1)[C@H]1CCC[C@@H](NCc2ccc(OC)cc2)C1 . Output its growth only.
Given back: 102

Asked: // Input: CC(C)(C)c1ccc(S(=O)(=O)Oc2ccc3c4c(c(=O)oc3c2)CCCCC4)cc1 . Output its growth only.
Given back: 58.6

====

Tested on: SF-268 CNS
Experiment: NCI-60 one-dose screen, 48 h (100 = growth as untreated, 0 = no growth, -100 = all killed)
Conditions: 10 µM unless noted
Experimental: Cells are grown in 96 well plates and exposed to the test compound for 48 hours. Compounds are tested at a single concentration, which is 10^-5 M for most compounds. The reported endpoint is percent growth (GI% or GIPRCNT), where numbers from 0 - 100% represent growth inhibition, and numbers from -100% - 0 represent cell death. For example, a value of 40 represents 60% growth inhibition. A value of 0 means no net growth occurred over the course of the experiment. […]
About 83,000 compounds went through this panel and 20% of them were active in at least one assay; those are over-represented in the sample as a whole.
Please mark rule met if the recorded growth is equal to or greater than 40%, and rule not met if it falls below.

Asked: Check if growth >= 40% (inclusive). Item: COc1cc(OC)c(C(=O)/C=C/c2ccc(C(F)(F)F)cc2)c(OC)c1
Given back: rule met

Asked: Check if growth >= 40% (inclusive). Item: COc1ccc(Cn2cc(COc3cc(/C=C/C(=O)c4cc(OC)c(OC)c(OC)c4)ccc3OC)nn2)cc1
Given back: rule met

Asked: Check if growth >= 40% (inclusive). Item: C=C1C(=O)O[C@H]2[C@H]1CC/C(COC(=O)NCc1cc(OC)cc(OC)c1)=C\CC[C@@]1(C)O[C@@H]21
Given back: rule not met

Asked: Check if growth >= 40% (inclusive). Item: O=c1[nH]c2ccccc2cc1-c1nnc(Cc2ccccc2)o1
Given back: rule met

Asked: Check if growth >= 40% (inclusive). Item: COc1cc(-c2csc(NC(=O)Nc3ccc(Cl)cc3Cl)n2)cc(OC)c1OC
Given back: rule not met

Asked: Check if growth >= 40% (inclusive). Item: COc1cc(C2C3=C(COC3=O)Nc3c2ccc2c3CCCC2)cc2c1OCO2 (stereo not given)
Given back: rule not met

Asked: Check if growth >= 40% (inclusive). Item: COC(=O)CCCCCCN=Cc1c(O)c(O)c(C(C)C)c2cc(C)c(-c3c(C)cc4c(C(C)C)c(O)c(O)c(C=NCCCCCCC(=O)OC)c4c3O)c(O)c12
Given back: rule not met

Asked: Check if growth >= 40% (inclusive). Item: Cc1ccc2nc(-c3c(CCCO)noc3N)[nH]c(=O)c2c1
Given back: rule met

Asked: Check if growth >= 40% (inclusive). Item: C[N+](C)(C)c1ccc(CC2c3ccccc3-c3ccccc32)cc1
Given back: rule met

Asked: Check if growth >= 40% (inclusive). Item: COC1=CC(c2ccc[nH]2)=N/C1=C\c1[nH]c(C)c(C(=O)CCCCC(=O)Nc2ccccc2)c1C
Given back: rule met

====

System: UACC-257 melanoma
Test: NCI-60 one-dose screen, 48 h
Conditions: 10 µM
About 83,000 compounds went through this panel and 20% of them were active in at least one assay; those are over-represented in the sample as a whole. Active and inactive are the calls of the source. The calls were made as follows: active = growth percent below 10; inactive = the rest.
// one of active, inactive, no free text

Asked: Assay outcome for COc1cc(NC(=O)CSc2nc3ccc(C)cc3c(=O)n2-c2ccccc2)cc(OC)c1OC : what was it?
Given back: inactive

Asked: Assay outcome for CCN(Cc1ccccc1)c1ccc(SC#N)cc1 : what was it?
Given back: inactive

Asked: Assay outcome for Cc1ccc(S(=O)(=O)NCCCNc2nccc(-c3c(-c4ccccc4)nc4sccn34)n2)cc1 : what was it?
Given back: inactive

Asked: Assay outcome for COc1cc(Cn2c(-c3nonc3N)nc3ccccc32)ccc1C : what was it?
Given back: inactive

Asked: Assay outcome for COc1cc(C2C=C(C)N=C3SC(C)=NN32)cc(OC)c1OC (configuration not stated) : what was it?
Given back: inactive

Asked: Assay outcome for Cc1cc(C)c(NC(=O)c2sc3nc4c(cc3c2N)CN(Cc2ccccc2)CC4)c(C)c1 : what was it?
Given back: inactive

Asked: Assay outcome for O=S(=O)(NCCCNc1nccc(-c2c(-c3ccccc3)nc3sccn23)n1)c1ccc(F)cc1 : what was it?
Given back: inactive

Asked: Assay outcome for c1ccc(CCn2nnc3c(Nc4ccc(N5CCOCC5)cc4)ncnc32)cc1 : what was it?
Given back: inactive

Asked: Assay outcome for Nc1c(C(=O)Nc2cccc(C(F)(F)F)c2)sc2nc3c(cc12)CCCCC3 : what was it?
Given back: inactive

Asked: Assay outcome for COc1cc(C(=O)/C=C/c2cc(C(=O)c3cc(OC)c(OC)c(OC)c3)ccc2OC)ccc1N : what was it?
Given back: active

Asked: Assay outcome for COc1ccc(-c2nc3sccn3c2-c2ccnc(NCCNS(=O)(=O)c3ccc(C(F)(F)F)cc3)n2)cc1 : what was it?
Given back: inactive

Asked: Assay outcome for CC(=O)n1cc([C@H]2CC[C@H](c3cn(C(C)=O)c4ccccc34)c3c2[nH]c2ccccc32)c2ccccc21 : what was it?
Given back: inactive

Asked: Assay outcome for Nc1c(C(=O)Nc2cccc(C(F)(F)F)c2)sc2nc3c(cc12)C(O)CCC3 (configuration not stated) : what was it?
Given back: inactive

Asked: Assay outcome for CC[C@H](C)[C@H]1NC(=O)[C@@H](N[C@](C)(O)[C@@H](N)CC(C)C)[C@@H](C)OC(=O)[C@H](Cc2ccc(OC)cc2)N(C)C(=O)[C@@H]2CCCN2C(=O)[C@H](CC(C)C)NC(=O)[C@@H](C)C(=O)[C@H](C(C)C)OC(=O)C[C@@H]1O : what was it?
Given back: active

Asked: Assay outcome for NC(=O)NC(=O)/C=C/C(=O)OCCCl : what was it?
Given back: inactive

Asked: Assay outcome for COc1ccc(/C=C/c2nc(N3CCOCC3)c3cc(F)c(F)cc3n2)cc1OC : what was it?
Given back: inactive

Asked: Assay outcome for COc1cc2c(cc1OC)C1(C)N(CC2)C(=O)OC1(C)C (configuration not stated) : what was it?
Given back: inactive

Asked: Assay outcome for COc1cccc(/C=C/c2c(C(=O)O)cccc2[N+](=O)[O-])c1OC : what was it?
Given back: inactive

Asked: Assay outcome for CCCCC(N)(C(=O)O)C1CCCC1 (configuration not stated) : what was it?
Given back: inactive

Asked: Assay outcome for Oc1ccc(Cl)cc1-c1cc(-c2ccc(Cl)cc2)n[nH]1 : what was it?
Given back: inactive

Asked: Assay outcome for COc1cc(/C=C2\CCCC3=C2NC(C)=NC3c2cc(OC)c(OC)c(OC)c2)cc(OC)c1OC (configuration not stated) : what was it?
Given back: inactive

Asked: Assay outcome for CCc1cccc(C)c1NC(=O)c1sc2nc3c(cc2c1N)C(=O)CCC3 : what was it?
Given back: inactive

Asked: Assay outcome for COc1ccc(/C=C/C(=O)c2cc(OC)c(OC)c(OC)c2)cc1OCc1cn(Cc2ccc(F)cc2)nn1 : what was it?
Given back: inactive

Asked: Assay outcome for COC1=CC(c2ccc[nH]2)=N/C1=C\c1[nH]c(C)c(C(=O)CCCCC(=O)Nc2ccccc2)c1C : what was it?
Given back: inactive

Asked: Assay outcome for COc1ccc(C2CC(c3cccs3)=NN2c2ccc(S(=O)(=O)NC(=O)Nc3ccc(C)cc3)cc2)cc1 (configuration not stated) : what was it?
Given back: inactive

Asked: Assay outcome for COc1ccc(C(=O)c2cc(OC)c(OC)c(OC)c2)cc1/C=C/C(=O)c1ccc2c(c1)OCO2 : what was it?
Given back: inactive

Asked: Assay outcome for CCCCNC(=O)NS(=O)(=O)c1ccc(N2N=C(c3ccc(C)cc3C)CC2c2ccc(OC)cc2)cc1 (configuration not stated) : what was it?
Given back: inactive
